Test system: ACHN renal
experimentalDetails: NCI-60 one-dose screen, 48 h
reportedConditions: 10 µM unless noted
Compounds without any hit were thinned out: in the full panel of roughly 83,000, 20% have a hit. Active and inactive are the calls of the source. How the source made its calls: active means growth percent below 10; inactive means the rest.
Labels: y (active), n (inactive)

substanceSmiles: [Cl][Hg][c]1cc[c]([Hg][Cl])o1
label: y

substanceSmiles: C[C@]12CCc3sc(-c4ccccc4O)nc3C1=CC[C@@H]1[C@@H]2CC[C@]2(C)C(=O)CC[C@@H]12
label: n

substanceSmiles: COC(=O)[C@@H](C)C[C@H](Cc1ccccc1)NC(=O)c1nc([C@@H](C[C@H](C(C)C)N(C)C(=O)[C@@H](NC(=O)[C@H]2C[C@H](O)CCN2C)C(C)C)OC(C)=O)sc1C(C)C
label: n

substanceSmiles: O=C(N/N=C\c1ccc(N(CCCl)CCCl)cc1Cl)c1cccnc1
label: n

substanceSmiles: CC[C@H](C)[C@H](NC(=O)N[C@@H](C)c1ccccc1)C(=O)N(C)[C@H](C[C@@H](OC(C)=O)c1nc(C(=O)N[C@@H](Cc2ccccc2)C[C@H](C)C(=O)OC)cs1)C(C)C
label: n

substanceSmiles: NC(=Nc1ccccc1)N[N+](=O)[O-]
label: n

substanceSmiles: COc1ccc(/C=C\c2cc(OC)c(OC)c(OC)c2)c(NS(=O)(=O)c2ccc(F)cc2)c1O
label: n

substanceSmiles: COC(=O)[C@@H](C)C[C@H](Cc1ccccc1)NC(=O)c1nc([C@@H](C[C@H](C(C)C)N(C)C(=O)[C@@H](NC(=O)[C@H]2CCCCN2C)C(C)C)OC(C)=O)sc1C(C)C
label: n

substanceSmiles: COc1ccc(/C=C/c2cc(OC)c(OC)c(OC)c2)cc1NC(=O)/C=C/c1ccc(F)cc1
label: n

substanceSmiles: O=C(Nc1ccc([N+](=O)[O-])cc1)C(Cl)(Cl)Cl
label: n

substanceSmiles: c1ccc(COc2ccc3[nH]cc(CCN(Cc4ccccc4)Cc4ccccc4)c3c2)cc1
label: n

substanceSmiles: COc1ccc(-n2c(C)nc3cc(OC)c(OC)cc3c2=O)cc1OC
label: n

substanceSmiles: CC[C@]12C=CCN3CC[C@@]4(c5ccc(OC)cc5N(C)[C@H]4[C@@](O)(C(=O)OC)[C@@H]1OC(=O)CCCC[P+](c1ccccc1)(c1ccccc1)c1ccccc1)[C@@H]32
label: n

substanceSmiles: O=C(N/N=C\c1ccc(N(CCCl)CCCl)cc1)c1cccc([N+](=O)[O-])c1
label: n

substanceSmiles: COc1ccc(/C(C)=C(\c2ccc(OCCN3CCOCC3)cc2)c2ccc(OC(=O)Cc3ccccc3)cc2)cc1
label: n

substanceSmiles: c1ccc(Nc2nc(-c3ccccc3)c[se]2)cc1
label: n

substanceSmiles: ClCCN(CCCl)c1ccc(/C=N/Nc2ncnc3nc[nH]c23)cc1
label: n
